SYSTEM NAME: T1, recombinant human MCP-3 (human, UniProt P80098 24-99)
T1 construct: also called rhMCP-3
T1 sequence (P80098 24-99 limits assumed): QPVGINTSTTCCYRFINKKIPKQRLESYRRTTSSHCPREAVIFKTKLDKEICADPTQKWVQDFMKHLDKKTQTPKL
ASSAY NAME: ELISA, coated antigen
PARAMETER MEASURED: ELISA OD (OD450)
The reply should contain only the number, in OD450.

Record anti-MCP-1 mAb 5.1 (antibody, V domains shown) VH: EQSGGGVVQPGRSLRLSCAASGFTFSSYGMHWVRQAPGKGLEWVAVIWYDGNNKYYADSVKGRFTISRDTSKNTLYLQMNSLRAEDTAVYYCARDSSSYYYYGMDVWGQGTTVTVSS VL: NFMLTQPHSVSESPGKTVTISCTRSSGSIASNYVQWFQQRPGSSPTTVIYEDDQRPSGVPDRFCGSIDSSSNSASLTISGLRTEDEADYYCQSYDSSNHVVFGGGTKLTVLG , field ELISA OD: 0.05

Record anti-MCP-1 mAb 1.6.1 (antibody, V domains shown) VH: QVQLVQSGAEVKKPGASVKVSCKVSGYTLTELSMHWVRQAPGKGLEWMGGFDPEDGETIYAQKFQGRVTMTEDTSTDTAYMELSSLRSEDTAVYYCATWYSGIYLAFDIWGQGTMVTVSS VL: EIVLTQSPDFQSVTPKEKVTITCRASQSIGSSLHWYQQKPDQSPKLLIKYASQSFSGVPSRFSGSGSGTDFTLTINSLEAEDAATYYCHQSSSLPHTFGGGTKVEIKR , field ELISA OD: 0.046

Record anti-MCP-1 mAb 1.4.1 (antibody, V domains shown) VH: QSGPGLVKPSQTLSLTCAISGDSVSSNSAAWNWIRQSPSRGLEWLGRTYYRSKWYSDHAVSVRSRITIYPDTSKNQFSLQLNSVTPEDTAVYYCARDRISGTYVGMDVWGQGTTVTVSS VL: DIGMTQTPLSLSVTPGQPASISCKSSQSLLYSDGKTYLYWYLQKPGQPPQHLIYEVSNRFSGVPDRFSGSGSGTDFTLKISRVEADDVGVYYCMQTIHLPLTFGGGTKVEIQR , field ELISA OD: 0.049

Record anti-MCP-1 mAb 3.16.1 (antibody, V domains shown) VH: QVQLVQSGAEVKKPGASVKVSCKVSGYTLTDLSMHWVRQAPGKGLEWMGGFDPEDGETIYAQKFQGRVTMTEDTSSDTAYMELSSLRSEDTAVYYCATHEFWSGYFDYWGQGTLVTVSS VL: DIVMTQSPDSLAVSLGERATINCKSSQSVLFSSNNKSYLTWYQQKPGQPPKLLIFWASIRESGVPDRISGSGSGTDLTLTISSLQAEDAAVYYCQQYYSSPWTFGQGTKVEIKR , field ELISA OD: 0.043

Record anti-MCP-1 mAb 1.11.1 (antibody, V domains shown) VH: QVQVVQSGAEVKNPGASVKVSCKVSGSTLTELSMHWVRQAPGKGLEWMGGFDPEDGETIYAQKFQGRVTMTEDTSTDTVYMELSSLRSEDTAVYYCATNDFWSGYFDYWGQGTLVTVSS VL: DIVMTQSPDSLAVSLGERATITCKSSQTVLYSSNNKNYLVWYQQKSGQPPKLLIHWASIRESGVPDRFSGSGSGTDFTLTISSLQAEDVAVYYCQQYYSSPWTFGQGTKVEIKR , field ELISA OD: 0.043
